CONDITION_INFO: 288.15 K; 101.33 kPa; Liquid; Vibrating tube method
MEASURED_PARAMETER: mass density (kg/m3)
Give just the number in kg/m3; leave the unit off.

Study these solved cases before continuing.
1) COCC[N+]1(C)CCCC1.O=S(=O)([N-]S(=O)(=O)C(F)(F)F)C(F)(F)F = 1464
2) CCCC[N+]1(C)CCCC1.FC(F)(F)C(F)(F)[P-](F)(F)(F)(C(F)(F)C(F)(F)F)C(F)(F)C(F)(F)F = 1594.2
3) CCCCCCCCCCCCCC[P+](CCCCCC)(CCCCCC)CCCCCC.FC(F)(F)C(F)(F)[P-](F)(F)(F)(C(F)(F)C(F)(F)F)C(F)(F)C(F)(F)F = 1190.3
4) CCCCCCOS(=O)(=O)[O-].CC[n+]1ccn(C)c1 [3-ethyl-1-methyl-1H-imidazolium hexyl sulfate] = 1137.4
5) CCCC[N+]1(C)CCCC1.O=S(=O)([N-]S(=O)(=O)C(F)(F)F)C(F)(F)F = 1403.8

Ask: Indicate its recorded mass density; the compound in question is `CCCCn1cc[n+](C)c1C.O=S(=O)([N-]S(=O)(=O)C(F)(F)F)C(F)(F)F`
Result: 1428.7

Ask: Indicate its recorded mass density; the compound in question is CCOS(=O)(=O)[O-].CCn1cc[n+](C)c1 [1-ethyl-3-methylimidazolium ethyl sulfate]
Result: 1244.8

Ask: Indicate its recorded mass density; the compound in question is CCCC[N+]1(C)CCCC1.O=S(=O)([O-])C(F)(F)F [1-butyl-1-methylpyrrolidinium trifluoromethanesulfonate]
Result: 1259.9
